assay: Metabolic stability in pre-warmed pooled mouse liver microsomes assessed as half life at 1 uM measured upto 60 mins by LC-MS analysis; type: ADME, Microsome
quantity_measured: half-life at 1 µM

Some solved entries appear below for comparison.
Cc1ccc(Oc2ccc(N/C=C3\N=C(c4ccc[nH]4)C4=C3CCCC4)cc2)cc1.Cl    > 60 min
COC1=CC(c2ccc[nH]2)=N/C1=C\Nc1ccc(C)cc1.Cl    28.9 min
COC1=CC(c2ccc[nH]2)=N/C1=C\Nc1cccc(OC(F)(F)F)c1.Cl    15.8 min
Cl.Clc1ccc(OC2=CC(c3ccc[nH]3)=N/C2=C\NC23CC4CC(CC(C4)C2)C3)cc1    > 60 min
Cl.FC(F)(F)Oc1ccc(C2=CC(c3ccc[nH]3)=N/C2=C\NC23CC4CC(CC(C4)C2)C3)cc1    > 60 min

Task: Value lookup for half-life at 1 µM; key = "C(/NCC1CCCCCC1)=C1/N=C(c2ccc[nH]2)C2=C1CCCC2.Cl"
Result: > 60 min

Task: One more compound: "COC1=CC(c2ccc[nH]2)=N/C1=C\N[C@H]1CC[C@H](NC(=O)OC(C)(C)C)CC1"
Result: 9.71 min

Task: One more compound: "CC1=C(C)/C(=C/NC2CCCCCC2)N=C1c1ccc(CC(C)C)[nH]1.Cl"
Result: > 60 min

Task: One more compound: "COC1=CC(c2ccc(-c3ccc(OC)cc3)[nH]2)=N/C1=C\NC1CCCCCC1.Cl"
Result: > 60 min

---

test: Cytotoxicity against mouse J774.A1 cells assessed as cell survival at 0.1 uM measured after 96 hrs by SYBR Green II dye based analysis relative to control; assay type: toxicity; settings: read-out: Survival
Each entry falls into one class according to its viability at 96 h, 0.1 µM; the ranges are label 0: < 60%; label 1: ≥ 60% and < 90%; label 2: ≥ 90%

// known answers, use as guide
COC1=CC(c2ccc[nH]2)=N/C1=C\NC1CCCCCC1.Cl    label 2
COC1=CC(c2ccc[nH]2)=N/C1=C\Nc1ccc2c(c1)OCCO2.Cl    label 1
COC1=CC(c2ccc[nH]2)=N/C1=C\N[C@H]1CC[C@H](NC(=O)OC(C)(C)C)CC1    label 0

// next entry
Task: Class? Entry: "C(/NCC1CCCCCC1)=C1/N=C(c2ccc[nH]2)C2=C1CCCC2.Cl"
Result: label 1

---

assay: Therapeutic index, ratio of EC50 for mouse J774.A1 cells to EC50 for antileishmanial activity against Leishmania mexicana MNYC/BZ/62/M379 amastigotes expressing red-shifted firefly luciferase from integrated ribosomal (28S) RNA locus infected in mouse J774.A1 cells; type: toxicity, cell-based; conditions: read-out: TI
quantity_measured: selectivity ratio

Some solved entries appear below for comparison.
COC1=CC(c2ccc[nH]2)=N/C1=C\Nc1ccc(OC(F)(F)F)cc1.Cl    > 14
CCCCCCCCCCCN/C=C1\N=C(c2ccc[nH]2)C=C1OC    > 21
COC1=CC(c2ccc[nH]2)=N/C1=C\NC1CCCCC1    > 25
CCCCCCN/C=C1\N=C(c2ccc[nH]2)C=C1OC.Cl    > 19
COC1=CC(c2ccc[nH]2)=N/C1=C\Nc1ccc(Cl)cc1    > 21
CCc1c(C)[nH]c(C2=N/C(=C\NC34CC5CC(CC(C5)C3)C4)C(C)=C2C)c1C.Cl    12
COC1=CC(c2ccc[nH]2)=N/C1=C\Nc1ccc(Cl)c(Cl)c1.Cl    > 10
Clc1ccc(OC2=CC(c3ccc[nH]3)=N/C2=C\NC2CCCCCC2)cc1    5.8

Task: Value lookup for selectivity ratio; key = "COC1=CC(c2ccc[nH]2)=N/C1=C\NCC1CCCCCC1.Cl"
Result: > 21

Task: One more molecule: "C(/NC1CCCCCC1)=C1/N=C(c2ccc[nH]2)C2=C1CCCC2.Cl"
Result: 3.4

Task: One more molecule: "COC1=CC(c2ccc(Cc3ccc(OC)cc3)[nH]2)=N/C1=C\NC12CC3CC(CC(C3)C1)C2.Cl"
Result: > 88

Task: One more molecule: "Cl.Fc1cc(F)cc(OC2=CC(c3ccc[nH]3)=N/C2=C\NC23CC4CC(CC(C4)C2)C3)c1"
Result: 8.6

---

experiment: Cytotoxicity against mouse J774.A1 cells assessed as cell survival at 0.1 uM measured after 96 hrs by SYBR Green II dye based analysis relative to control; type: toxicity; details: read-out: Survival
quantity_measured: viability at 96 h, 0.1 µM (%)
Write the number in % without appending the unit.

Task: Value lookup for viability at 96 h, 0.1 µM; key = "FC(F)(F)Oc1ccc(C2=CC(c3ccc[nH]3)=N/C2=C\NC2CCCCCC2)cc1"
Result: 95.8

Task: One more compound: "COC1=CC(c2ccc[nH]2)=N/C1=C\Nc1ccccc1"
Result: 72.8

Task: One more compound: "C(/NC1CCCCC1)=C1/N=C(c2ccc[nH]2)C2=C1CCCC2.Cl"
Result: 60.3

Task: One more compound: "CCCCCCN/C=C1\N=C(c2ccc[nH]2)C=C1OC.Cl"
Result: 127

---

assay: Cytotoxicity against mouse J774.A1 cells assessed as cell survival at 0.1 uM measured after 96 hrs by SYBR Green II dye based analysis relative to control; assay type: toxicity; settings: read-out: Survival
Each entry falls into one class according to its viability at 96 h, 0.1 µM; the ranges are lo (below 60%), mid (60% to below 90%), hi (90% or more)

// known answers, use as guide
CC1=C(C)/C(=C/Nc2ccc(C)cc2)N=C1c1ccc[nH]1    lo
COC1=CC(c2ccc[nH]2)=N/C1=C\N[C@H]1CC[C@H](C)CC1.Cl    mid
CCc1ccc(C2=N/C(=C\NC3CCCCCC3)C(OC)=C2)[nH]1.Cl    lo
CCCCCCCCCCCN/C=C1\N=C(c2ccc[nH]2)C=C1OC    hi
COC1=CC(c2ccc[nH]2)=N/C1=C\Nc1ccc(C)cc1.Cl    lo
COC1=CC(c2ccc(Cc3ccc(OC)cc3)[nH]2)=N/C1=C\NC1CCCCCC1.Cl    mid

Task: Class? Entry: "Clc1ccc(OC2=CC(c3ccc[nH]3)=N/C2=C\NC2CCCCCC2)cc1"
Result: hi

Task: One more compound: "FC(F)(F)Oc1ccc(OC2=CC(c3ccc[nH]3)=N/C2=C\NCC2CCCCCC2)cc1"
Result: hi

---

// viability at 96 h, 0.1 µM lookup, one value per entry
assay: Cytotoxicity against mouse J774.A1 cells assessed as cell survival at 0.1 uM measured after 96 hrs by SYBR Green II dye based analysis relative to control; type: toxicity; settings: read-out: Survival
Write the number in % without appending the unit.

CC1=C/C(=C\NC23CC4CC(CC(C4)C2)C3)N=C1c1ccc[nH]1.Cl    86.9
FC(F)(F)Oc1ccc(N/C=C2\N=C(c3ccc[nH]3)C3=C2CCCC3)cc1    92.7
CCCCCCCCCCCN/C=C1\N=C(c2ccc[nH]2)C=C1Oc1ccc(OC(F)(F)F)cc1    96.7
COC1=CC(c2ccc(Cc3ccc(OC)cc3)[nH]2)=N/C1=C\Nc1ccc(Cl)cc1    101
CC1=C(C)/C(=C/Nc2ccc(Cl)cc2)N=C1c1ccc[nH]1    88.1
COC1=CC(c2ccc(Cc3ccc(OC)cc3)[nH]2)=N/C1=C\NC1CCCCC1.Cl    84.6

Task: Value lookup for viability at 96 h, 0.1 µM; key = "COC1=CC(c2ccc[nH]2)=N/C1=C\Nc1cccc(OC(F)(F)F)c1.Cl"
Result: 83.7

Task: One more compound: "COC1=CC(c2ccc(Cc3ccc(OC)cc3)[nH]2)=N/C1=C\NC1CCCC1.Cl"
Result: 86.6

Task: One more compound: "COC1=CC(c2ccc(Cc3ccc(OC)cc3)[nH]2)=N/C1=C\NC12CC3CC(CC(C3)C1)C2.Cl"
Result: 59.6

Task: One more compound: "FC(F)(F)Oc1ccc(OC2=CC(c3ccc[nH]3)=N/C2=C\N[C@H]2CC[C@H](C(F)(F)F)CC2)cc1"
Result: 108

Task: One more compound: "COC1=CC(c2ccc[nH]2)=N/C1=C\Nc1cccc(Cl)c1.Cl"
Result: 65.3

---

// viability at 96 h, 0.1 µM lookup, one value per entry
test: Cytotoxicity against mouse J774.A1 cells assessed as cell survival at 0.1 uM measured after 96 hrs by SYBR Green II dye based analysis relative to control; assay type: toxicity; conditions: read-out: Survival
Write the number in % without appending the unit.

Some solved entries appear below for comparison.
Cl.Fc1cc(F)cc(OC2=CC(c3ccc[nH]3)=N/C2=C\NC23CC4CC(CC(C4)C2)C3)c1    59.3
CCC1=CC(c2ccc[nH]2)=N/C1=C\NC1CCCCCC1    88.7

Read the next record carefully.
Task: Value lookup for viability at 96 h, 0.1 µM; key = "COC1=CC(c2ccc[nH]2)=N/C1=C\Nc1ccc(F)c(OC)c1.Cl"
Result: 58.7
